condition label: buffer; pH 7.4; 200.0 µM
observed property: solubility kinetic (µg/mL)

molecule	sign	measured
O=C(CCNC(=O)c1ccccc1)Nc1nc2ccccc2s1	=	4.9
COc1ccc(N(C)S(=O)(=O)c2cccc(C(=O)OCC(=O)N(C)c3ccccc3)c2)cc1	=	7.9
O=C(CC1SCCNC1=O)Nc1ccc(Cl)cc1 (stereo unspecified)	>	42.7
C=CCn1c(SCC(=O)N(C)C)nc2sc3c(c2c1=O)CCC3	=	3.4
CC1CCN(CC(=O)Nc2ccc3c(c2)OCO3)CC1	>	41.5
O=C(COc1ccccc1)Nc1ccc2oc(=O)ccc2c1	=	9.8

====

condition label: buffer; pH 7.4; 200.0 µM
observed property: log10 of solubility kinetic (log10 of the value in mg/mL)

molecule	log10 of solubility kinetic
Cc1sc2ncnc(NCC(O)c3ccc([N+](=O)[O-])cc3)c2c1C (centres undefined)	-2.26
CNC(=O)c1c(NC(=O)c2ccco2)sc2c1CCC2	-2.48
CCOC(=O)c1nc2ccccc2c(C)c1C.Cl	-1.60
COc1ccc(C(=O)OCC(=O)Nc2ccccc2)cc1[N+](=O)[O-]	-2.52
O=C(O)C1C2CCC(O2)C1C(=O)Nc1ccc(OC(F)F)cc1 (centres undefined)	-1.35
CSc1ccccc1C(=O)N(C)C(c1ccccc1)c1ccccc1	-1.97
CCOC(=O)C1(Cc2ccccc2C)CCCN(C(=O)CCC(=O)OC)C1 (centres undefined)	-1.28
CCOC(=O)c1c[nH]c2ccc3ccccc3c2c1=O	-1.99
Cc1ccnc(NC(=O)c2cc3cc(F)ccc3s2)c1	-2.28
COc1cnc(-c2ccccc2)nc1OC	-1.72
Cc1ccc(C(=O)NCCCNC(=O)c2ccco2)cn1	-1.46
Cc1ccc(NC(=O)CCc2ccccc2)cc1S(=O)(=O)N1CCOCC1	-1.25
COc1ccc(/C=C/C(=O)OCC(=O)NC2CCCC(C)C2C)cc1 (centres undefined)	-2.21
Cc1ccc(Cl)cc1NC(=O)NCc1ccccn1	-1.44
O=C(Nc1csc([N+](=O)[O-])c1)Nc1c(Cl)cccc1Cl	-2.72

====

// solubility kinetic lookup, one value per entry
condition label: buffer; pH 7.4; 200.0 µM

molecule	sign	solubility kinetic / µg/mL
Cc1cc(S(=O)(=O)Cc2noc(-c3c(C)noc3C)n2)c(C)cc1Cl	<	0.3
CC1CC(C)CN(C(=O)COc2ccc([N+](=O)[O-])cc2Cl)C1 (stereo unspecified)	=	11
CC1CN(CC(=O)NC(C)c2ccccc2)CC(C)O1 (stereo unspecified)	>	41.5
C=C(C)C(=O)Nc1cccnc1Oc1ccc(F)cc1F	=	40.8
O=C(O)c1cccnc1SCc1cccc(Br)c1	>	48.6
Cc1cc(/C(N)=N/OC(=O)Nc2cccc(C(F)(F)F)c2)no1	=	7.2

====

Here the recorded solubility kinetic is given for each entry.
condition label: buffer; pH 7.4; 200.0 µM
observed property: solubility kinetic (µg/mL)

compound	observed property	sign	measured
Cc1onc(-c2ccccc2)c1C(=O)/C=C/N(C)C	solubility kinetic	=	36.4
NC1=NC2(CCCC2)N=C(Nc2ccccc2)N1	solubility kinetic	>	36.5
CCOc1cccc(C2CC(=O)Nc3cc(OC)c(OC)cc32)c1 (stereo not given)	solubility kinetic	=	12.5
O=S1(=O)NC(=NCCOCCO)c2ccccc21	solubility kinetic	>	40.5
COc1ccc(CCN(C)C/C=C/c2ccccc2)cc1OC	solubility kinetic	=	30.1
CCOC(=O)N1CCN(C(=O)c2cc3cc(C)ccc3[nH]2)CC1	solubility kinetic	=	41.6
O=C1Nc2ccccc2C1Cc1ccc(OC(F)(F)F)cc1 (stereo not given)	solubility kinetic	=	37.3
Cc1cc(C)c(NC(=O)C2CC3CCC2C3)c(C)c1 (stereo not given)	solubility kinetic	=	10.1
CSc1ccccc1NC(=O)CCc1ccccc1	solubility kinetic	=	35.5
CCCNC(=O)CSc1nc2ccc(OCC)cc2s1	solubility kinetic	=	7.2
CC(C)(C)c1ccc2c(c1)N(CC(=O)N1CCCC1)C(=O)CO2	solubility kinetic	>	47.5
CNC(=S)Nc1cccc([N+](=O)[O-])c1	solubility kinetic	>	31.7
Cc1ccc(C(=O)O/N=C2/CC3CCC2(C)[C@@]3(C)CBr)cc1 (stereo not given in full)	solubility kinetic	<	0.8
CCNc1nc(SCC(N)=O)nc2sc3c(c12)CCN(C)C3	solubility kinetic	>	50.6
CCOC(=O)C1CCCN(c2c(NCCC(C)C)c(=O)c2=O)C1 (stereo not given)	solubility kinetic	=	44.5
O=C(CC12CC3CC(CC(C3)C1)C2)Nc1ccc(C(=O)O)cc1	solubility kinetic	>	47
Cc1csc(NC(=O)CCCC(=O)O)c1-c1nc2ccccc2s1	solubility kinetic	>	54.1
CC(=O)N/C(=N/c1nc(C)cc(C)n1)Nc1cc(C)cc(C)c1	solubility kinetic	=	3.8
N#C/C(=C\c1cccc(Br)c1)C(=O)N1CCCCC1	solubility kinetic	>	47.9
O=C(COC(=O)CNC(=O)c1ccc(Cl)cc1)NC1CCCCCC1	solubility kinetic	=	18
CCn1c(SCC#N)nc2cc(S(=O)(=O)N3CCOCC3)ccc21	solubility kinetic	>	55
CN(C(=O)COC(=O)c1cnc(Cl)c(Cl)c1)C1CCCCC1	solubility kinetic	=	41.7
C[C@H](NC(=O)N1CCC(Cc2ccccc2)CC1)C(=O)O	solubility kinetic	>	43.6
C=CCSc1nc(=O)n2ccc(C)cc2n1	solubility kinetic	=	31.7
Cc1cccc(C)c1NC(=O)CNC(=O)c1ccncc1	solubility kinetic	>	42.5

====

condition label: buffer; pH 7.4; 200.0 µM
observed property: solubility kinetic (µg/mL)

smiles code	sign	measured
Cc1cc(C)cc(NC(=O)N(CCC#N)Cc2cccs2)c1	=	4.8
O=C(COC(=O)C1CCCCC1)Nc1cccc(F)c1	>	41.9
Cc1cc(C)nc(/N=c2/ssnc2Cl)c1	=	1.8
COCCCn1c(=S)[nH]c2sc3c(c2c1=O)CCCC3	>	46.6
Cc1cc(SCNC(=O)c2ccccc2)nc(C(C)C)n1	>	45.2
O=[N+]([O-])c1ccc(Nc2nc(Cl)nc(NCCO)n2)cc1	=	2.6
O=Cc1c(C(=O)O)n(Cc2ccccc2F)c2ccccc12	>	44.6
CCOc1ccccc1C(=O)Nc1cccc2cccnc12	<	0.3
Cc1cccc(OCCCn2c(=O)oc3ccc(C)cc32)c1	=	3.3
COc1ccc(C(=O)NCCNc2ccccc2[N+](=O)[O-])cc1	=	36.3
Cc1noc(C)c1COC(=O)CNC(=O)c1cccc(F)c1	=	45.9
O=C(NCCCN1CCCC1=O)c1cc2ccccc2o1	>	42.9

====

condition label: buffer; pH 7.4; 200.0 µM
Reported values of log10 solubility kinetic for individual entries
observed property: log10 solubility kinetic (log10 of the value in µg/mL)

molecule	measured
Cc1ccc(C)c(CN2C(=O)NC3(CCCCCC3)C2=O)c1	0.57
CS(=O)(=O)c1ccc(NCCc2ccccn2)c([N+](=O)[O-])c1	1.65
N#Cc1nc(-c2ccc(Cl)cc2)oc1NCC1CCCO1 (configuration not stated)	0.40
COc1cccc(S(=O)(=O)Nc2noc3ccccc23)c1	1.58
COc1ccc(Cn2c(=O)cc(C)[nH]c2=S)cc1	1.31
Cc1nc2cc(C(=O)N3CCN(C)CC3)ccc2n1C	1.60
Cc1cccc(NC(=O)c2ccc3c(c2)OCCO3)c1C	1.34

====

condition label: buffer; pH 7.4; 200.0 µM
observed property: solubility kinetic (µg/mL)

molecule	observed property	sign	measured
CCc1ccc(OCC(=O)OC(C)C(=O)NC2CC2)cc1 (stereo unspecified)	solubility kinetic	>	43.7
O=C(Nc1ccccc1)N1CCCN(c2ccc(C(F)(F)F)cn2)CC1	solubility kinetic	=	9.7
Cc1ccsc1CN(C)CC(=O)NCC(=O)Nc1ccc(F)c(F)c1F	solubility kinetic	=	10.8
CSc1nc2c(cc1C#N)C(=O)CC(C)(C)C2	solubility kinetic	=	10.3
COC(=O)[C@H](CCSC)NC(=O)NC1CC1	solubility kinetic	>	36.9
NC(=O)c1ccc(NC(=O)COC(=O)c2ccc(Cl)nc2)cc1	solubility kinetic	>	50.1

====

condition label: buffer; pH 7.4; 200.0 µM
Listed here: items and their measured solubility kinetic.
observed property: solubility kinetic (µg/mL)

molecule	sign	measured
CN(C(=O)c1ccnn1C)C1CCCN(Cc2ccccc2F)C1 (configuration not stated)	>	49.6
CC(=O)Nc1ccc(NC(=O)CSc2nc3ccccc3c(=O)n2CCCN2CCOCC2)cc1	=	70.9
CNC(=O)Nc1cccc(-c2ccnc(C)n2)c1	=	27.5
O=C(COC(=O)c1cccc(F)c1)NC1CC1	>	35.6
COc1ccc(Cl)cc1C(=O)Nc1ccc(NC(=O)C(C)C)cc1	=	0.5
O=C(O)CCCC(=O)NCc1c(Cl)cccc1Sc1ccc(Cl)cc1	>	59.7
COc1ccc(Nc2ccc([N+](=O)[O-])cc2[N+](=O)[O-])cc1	=	1.5
Cc1ccc(C(OCC(O)CN2CCCCC2)c2ccccc2)cc1 (configuration not stated)	=	40.2
Cc1cc2nc3c(=O)n(C4CCCCC4)c(=O)[nH]c3nc2cc1N	=	2.8
CC(C)c1nc2sc3c(c2c(=O)[nH]1)CC(C)(C)OC3	=	6.4
COc1ccccc1NC(=O)NCC1(N(C)C)CCCCC1	>	45.8
Clc1nc(NC2CCCC2)nc(N2CCOCC2)n1	=	5.1
